// reported cell viability per item
Test system: IL-6-GFP PC-9
ASSAY TEXT: cell viability (CCK-8 OD) relative to DMSO control (fraction of control); higher = more viable cells
EXPERIMENTAL CONTEXT: compound concentration: 10 uM; treatment time: 48 h
PROPERTY NAME: cell viability

compound="O=C([O-])Cc1ccccc1Nc1c(Cl)cccc1Cl.[Na+] [Diclofenac Sodium]" reading=1.09
compound="CNC(=O)C(NC(=O)C(CC(C)C)C(O)C(=O)NO)C(C)(C)C (centres undefined)" reading=1.14
compound=C=CC(=O)Nc1cc(Nc2nccc(-c3cn(C)c4ccccc34)n2)c(OC)cc1N(C)CCN(C)C reading=0.372
compound="CN(C)CCCOc1nn(Cc2ccccc2)c2ccccc12.Cl [Benzydamine HCl]" reading=0.549
